Biological target: T1, PUF4 RNA-binding domain (Saccharomyces cerevisiae, UniProt P25339 537-888)
T1 sequence: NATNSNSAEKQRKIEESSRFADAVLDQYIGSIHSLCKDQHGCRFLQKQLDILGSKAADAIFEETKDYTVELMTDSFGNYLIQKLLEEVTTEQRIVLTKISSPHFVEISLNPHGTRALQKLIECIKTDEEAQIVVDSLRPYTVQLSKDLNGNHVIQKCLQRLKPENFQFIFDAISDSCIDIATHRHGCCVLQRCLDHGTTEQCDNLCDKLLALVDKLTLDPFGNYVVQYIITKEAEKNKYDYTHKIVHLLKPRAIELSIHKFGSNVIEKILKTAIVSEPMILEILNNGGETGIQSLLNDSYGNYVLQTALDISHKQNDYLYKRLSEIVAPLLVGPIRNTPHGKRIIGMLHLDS
Assay: Mg; RNA-MaP; 20 mM Na-HEPES pH 7.4, 30 mM KOAc, 0.75 mM MgCl2, 0.1% Tween-20, 5% glycerol, 0.1 mg/mL BSA, 2 mM DTT; 25 C; 0.0125-409.6 nM protein
Details: tags: N-His6-TEV cleaved; C-SNAP kept, Cy3B-labelled; label: tethered on chip by stalled RNA polymerase
pKd: −log10 of the molar value.
Readout name: pKd

Solved entries (count: 3):
[[record]]
binder = "UCUCUUUCACACUAUAAAUCUCUU (ssRNA) [Id_ii_S1_P3E.4_K3.3_C3.2_[C-2T]_[T-1C]_H3.3_A3.1_F3.1_T3.2_[T9A]]"
measured = "< 5.64"

[[record]]
binder = "ACAAACCUACACUAUAGAACAAAC (ssRNA) [Id_ii_S3_P3E.4_K3.3_C3.2_H3.3_A3.1_F3.1_T3.2_[T9G]]"
measured = "< 5.64"

[[record]]
binder = "ACAAACUCACACUAUUAAGACAAAC (ssRNA) [Id_ii_S3_P4E.4_K4.3_C4.2_[C-2T]_[T-1C]_H4.3_A4.1_F4.1_T4.2_[G10A]_[T11G]]"
measured = "< 5.64"


We next turn to a different binder, shown below.
**Q:** Endpoint output: pKd of UCUCUUGGUCUAUAUCUCUU (ssRNA) [Ib_S1_P3E.1_K3.1_C3.1_H3.1_[T1G]_[A4C]_A3.1_F3.1_T3.1] . Value?
**A:** < 5.64
